Origin of measurements: the supplement of paper PMC9170038

# Tested on: MS2 coat protein
# protocolDescription: apparent KD of MS2 coat protein; designed switch direction (-1 OFF switch, 1 ON switch): 1; higher = weaker reporter binding
# runConditions: input ligand: none
Give apparent KD of MS2 coat protein for every item shown.
Give bare numbers, in nM.

Known results for sequences:
AAUUAAGAUCAAGGAUAUCACGUCGAUUAGACGUGAGAAGGUGAUAAUUACAUGAGGAUCACCCAUGUAUAACAUGAAUUAAUU [SSNG1/9-B2] (Eterna round: R96, puzzle: Same State NG 1) | 33.5
UGGCUCAGACUAGGAUAUAUGCGAUCACAUGAGGAUCACCCAUGUCUCGAGCUUCGGCUCGAGGCAUAGAAGGAGUCUGAGCCA [SSNG2/4-D2] (Eterna round: R96, puzzle: Same State NG 2) | 56.5
UGGCUCAGAGCAGGAUAUACGUGGUCACAUGAGGAUCACCCAUGUCUCGAGCUUCGGCUCGAGGCGUAGAAGGGCUCUGAGCCA [SSNG2/6-B2] (Eterna round: R96, puzzle: Same State NG 2) | 305
UGGUACAUGGGAGGAUAUGGGCAAGAGACAUGAGGAUCACCCAUGUUAUAAAAGCCGAGAGGCAUCUAGAAGGCCCAUGUACCU [JL SSNG1 3.90] (Eterna round: R96, puzzle: Same State NG 2) | 55.4
UCGGGCGUACUUGCAGACAUGAGGAUCACCCAUGUAAAUGGGAAGGAUAUGGUACCGUUUCGGUACCAGAAGGUCCUGGGUGCU [salish99_SSNG3_r04_308] (Eterna round: R96, puzzle: Same State NG 3) | 1960
GGUAGGUUACUACCAAACAUGAGGAUCACCCAUGUAAGUGGGAAGGAUAUGGUACCGUUUCGGUACCAGAAGGUCCAUAUAGUA [JL Fiskers NG3ss - 2 mod 11] (Eterna round: R96, puzzle: Same State NG 3) | 1530
UGCUAGGAUAUCUUGAGGAUCACCCAGGAGAAGGAGUAAAGUUAGGAUAUCCUGAGGAUCACCCAGGAGAAGGAGCACAUACUC [pwkr ssNG3 DX 2xF5 +2xFMN.14] (Eterna round: R96, puzzle: Same State NG 3) | 58.4
AGUCCAGCCUGAGCUGGACUGAAGCAUGUACAUGAGGAUCACCCAUGUUCAUGUACAGGCUUUUUGCUCGUCUUAUG [JL-shm-2.02 JL mod] (Eterna round: R96, puzzle: Sensor for hsa-mir-208a) | 676
UUAUCUAUCCGAGGAUAUCCAUAUAAUUUACAUGAGGAUCACCCAUGUUAUUGGGAGUUUUUUUAGGAGAAGGCGGAUGUAGAU [JR_SSNG2_Sub052] (Eterna round: R96, puzzle: Same State NG 2) | 107
UCUUGGUUUUUGCUCGUUUUUUGUGUUGAACAUGAGGAUCACCCAUGUAUUGUACAGUCCAAUUUGAUAAUGGUCCG [JMF 54] (Eterna round: R96, puzzle: Sensor for hsa-mir-208a) | 55.1

Give apparent KD of MS2 coat protein for all sequences that follow.
1. GUUACAUGAGGAUCACCCAUGUAUGUGUGGGAGUAAGUGUCUUAGGAUAUCUAUUAUGUAAAUUAAGAGAAGGAAGAUUGUUGU [JMF's solution 17] (Eterna round: R96, puzzle: Same State NG 3)
2. AGUAGUUUAACAUGAGGAUCACCCAUGUAUCUAUCUGUAACCUAGGAUAUGGAGGUUUUAUUUAACCAGAAGGAGGAUUGUUUA [JR_SSNG3_Sub044] (Eterna round: R96, puzzle: Same State NG 3)
3. GAGUAGUUGGGAGGAUAUGCAUUGUUAUUAAAUGCAGAAGGUUUUAACAUGAGGAUCACCCAUGUAGGACUAUUCCUGUGUAUC [Parity 70 - Jieux - Same State NG 1] (Eterna round: R96, puzzle: Same State NG 1)
4. GGAGCCAAGGCAGGAUAUUCAUUUAAAUAAACAUGAGGAUCACCCAUGUAGGCCAGAAGGCCUUGGGAGAAGGGCCAUGGCUCG [Xeonanis - 13 mod7] (Eterna round: R96, puzzle: Same State NG 2)
5. GCCAUCGCAUGAGGAUAUGGCACCGAAACGGUGCCAGAAGGCAUGUCGAAAGACAUGAGGAUCACCCAUGUAGUAUAGAUGGCA [Mat - Same State NG 1 - JL mod - D93] (Eterna round: R96, puzzle: Same State NG 1)
6. GUUACAUGAGGAUCACCCAUGUAUGUGUGGGAGUAAGUGUCUUAGGAUAUCUAUCAUUUAAUUAAAGAGAAGGAAGAUUGUUGU [JMF's solution 98] (Eterna round: R96, puzzle: Same State NG 3)
7. GGUCGGACUCACAUGAGGAUCACCCAUGUUCCGGAAACGGGACAGGAUAUCUGUCCGAAAAGGUCAGAGAAGGGUCUACCGACC [Fiskers NG3ss - 54] (Eterna round: R96, puzzle: Same State NG 3)

262
24.2
17.1
88.1
900
113
289

Sure, the documented apparent KD of MS2 coat protein for GCUCGACGUUCGGCCUACAUGAGGAUCACCCAUGUGACUGGGCAGGAUAUCUAAAUGCAGAAUGUAGAGAAGGGCCCGUCGAGC [SameState NG3 #51] (Eterna round: R96, puzzle: Same State NG 3) is 190

---

# System: MS2 coat protein
# protocolDescription: apparent KD of MS2 coat protein, switch ON state; designed switch direction (-1 OFF switch, 1 ON switch): -1; higher = weaker reporter binding
# runConditions: FMN input: 0 or 200 uM; Eterna round: R93 (includes R88 designs)
Class satisfied: apparent KD of MS2 coat protein at least 50 nM. Class not satisfied: apparent KD of MS2 coat protein below 50 nM.

Check out these entries, answers already filled in.
CAGUACUGAGGAUAUACAUGAGGAUCACCCAUGUGAUCAAGCUACGAAAGUAGCAAAAGUAGAAGGCAGUACUG [Ex3: 810] | satisfied
CUCAAGUUAGGAUAUAGAAGAAAAGAAGAGAAAGAAAAGAACUAGAAGGAACAUGAGGAUCACCCAUGUAAGAA [EteRNA is fun!] | not satisfied
AAAAAGGCAGGAUAUGCAUACCCACGAAAAAAAACGCUGGGACAUGAGGAUCACCCAUGUAGAAGGGCCAAAAA [Dora Explored 11 - Jieux - Exclusion 2] | satisfied
AGAGGACAUGAGGAUCACCCAUGUGAGGAUAUGCAAAACUAAGGACAAGAUCGGUAUAGCAGAAGGCACGUAGU [JR_EXc001_Sub808] | not satisfied

Tell me whether apparent KD of MS2 coat protein is at least 50 nM here: AAAAAGUCAGGAUAUGUCAAAGGUCACGAAAGUGACAAAGGACAGAAGGGACAUGAGGAUCACCCAUGUGGAAA [Fiskers Exclusion 4D1 65% - Late G segment 1]
satisfied

---

# System: MS2 coat protein
# protocolDescription: apparent KD of MS2 coat protein; designed switch direction (-1 OFF switch, 1 ON switch): -1; higher = weaker reporter binding
# runConditions: Eterna round: R95; input ligand: none
measurementKind: apparent KD of MS2 coat protein (µM)
One number for each entry, in µM.

AAACCUGCCCAUGACCGCAAGCUUUUUGCUUGUCUUACCACAUGAGGAUCACCCAUGUGACAUGGGCUCCUUAUAAA [Usteorrila] (puzzle: Sensor v3, turn-off variant 2) | 0.0115
CUGAGGUAGCGGUCCUAUUACAUGAGGAUCACCCAUGUACCUUGCUUCGAGCUUUUAGCUCGUCUUAUGAUUCUCGG [Mat - Sensor v3 - turn-off var 1 - JL Mod - D38] (puzzle: Sensor v3, turn-off variant 1) | 0.381

Give apparent KD of MS2 coat protein for all sequences that follow.
1. AUAAAUAAGGAGGAUAUCGUAUCGGAAACGAUACGAGAAGGCCUAACAUGAGGAUCACCCAUGUUCCUUAAAUA [Mat - Exclusion 6 - Eli Mod - D62] (puzzle: Exclusion 6)
2. GUCACUAGAGGAUAUACAAUGGUAUAUGAUCCUAGAGACAAACAUGAGGAUCACCCAUGUAGAAGGCUAGUAAU [Exclusion 2 - 3] (puzzle: Exclusion 2)
3. CUUCACCCACCAAAGCUCACCCACAUACCUGCUCUGGUGACAUGAGGAUCACCCAUGUUUUUUGCCCGUCUUAUCUU [Leso] (puzzle: Sensor v3, turn-off variant 2)

[0.0216, 0.123, 0.0414]

---

# Test system: MS2 coat protein
# protocolDescription: apparent KD of MS2 coat protein; designed switch direction (-1 OFF switch, 1 ON switch): 1; higher = weaker reporter binding
# runConditions: Eterna round: R95; input ligand: FMN 200 uM
measurementKind: apparent KD of MS2 coat protein (nM)
Numbers only, in nM.

Known results for sequences:
GACAAUCUAUCUGAGGAUAUCAUGAAGAAAACAUGAGGAUCACCCAUGUGCAGGAUAACUGCAAAUGAGAAGGCAGAUAGAUUGG [Mat - Same State 2 - Mod - D3] (puzzle: Same State 2) | 10.9
AGUCCAGCCUGAGCUGGACUGAAGCAUGUACAUGAGGAUCACCCAUGUUCAUGUACAGGCUUUUUGCUCGUCUUAUG [JL-shm-2.02 JL mod] (puzzle: Sensor for hsa-mir-208a) | 842

# ---- query sequence ----
Sure, the documented apparent KD of MS2 coat protein for GGAGAACAUGAGGAUCACCCAUGUAAGAGAGUUGUAGGAUAUGUGAGGAGCAGAGGAUGAACAGAAGGACAUGGAG [JR_SS!_Sub070] (puzzle: Same State 1) is 42
